Every entry's value here was drawn from ChEMBL document CHEMBL1135786.

Tested on: Human immunodeficiency virus 1
Assay Name: Anti HIV-1 activity against the virus NL4-3 using MAGI assay
Format: functional, organism-based
Condition Summary: Human immunodeficiency virus 1, MAGI
Endpoint: EC50 (µM)
Output spec: scalar in µM, unitless text.

Some solved entries appear below for comparison.
{"columns": ["Substance Smiles", "EC50 (µM)"],
 "data": [
  ["C=C(C)[C@@H]1CC[C@]2(C(=O)NCCCCCCCC(=O)N[C@@H](CC(C)C)C(=O)O)CC[C@]3(C)[C@H](CC[C@@H]4[C@@]5(C)CC[C@H](O)C(C)(C)[C@@H]5CC[C@]43C)[C@@H]12", 1.38],
  ["C=C(C)[C@@H]1CC[C@]2(C(=O)NCCCCCCCC(=O)N[C@@H](CC(C)C)C(=O)OC)CC[C@]3(C)[C@H](CC[C@@H]4[C@@]5(C)CC[C@H](O)C(C)(C)[C@@H]5CC[C@]43C)[C@@H]12", 0.52],
  ["Cc1cn([C@H]2C[C@H](N=[N+]=[N-])[C@@H](CO)O2)c(=O)[nH]c1=O", 0.075],
  ["C=C(C)[C@@H]1CC[C@]2(C(=O)NCCCCCCCCCCC(=O)OC)CC[C@]3(C)[C@H](CC[C@@H]4[C@@]5(C)CC[C@H](OC(C)=O)C(C)(C)[C@@H]5CC[C@]43C)[C@@H]12", 10.2]
]}

Now consider the entry below.
Req: // query EC50 value for entry C=C(C)[C@@H]1CC[C@]2(C(=O)NCCCCCCCCCCC(=O)O)CC[C@]3(C)[C@H](CC[C@@H]4[C@@]5(C)CC[C@H](O)C(C)(C)[C@@H]5CC[C@]43C)[C@@H]12
Resp: 0.7

----------
Tested on: Human immunodeficiency virus 1
Assay Name: Anti HIV-1 activity against the virus NL4-3 using fusion assay
Format: functional, organism-based
Mark Met for EC50 under 1000 nM, Not met if at or over.

{"columns": ["Substance Smiles", "Class"],
 "data": [
  ["C=C(C)[C@@H]1CC[C@]2(C(=O)N[C@@H](CC(C)C)C(=O)OC)CC[C@]3(C)[C@H](CC[C@@H]4[C@@]5(C)CC[C@H](OC(C)=O)C(C)(C)[C@@H]5CC[C@]43C)[C@@H]12", "Not met"]
]}

Now for another entry.
Req: Identify whether the compound C=C(C)[C@@H]1CC[C@]2(C(=O)NCCCCCCCC(=O)N[C@@H](CC(C)C)[C@H](O)CC(=O)O)CC[C@]3(C)[C@H](CC[C@@H]4[C@@]5(C)CC[C@H](O)C(C)(C)[C@@H]5CC[C@]43C)[C@@H]12 records EC50 below 1000 nM.
Resp: Met

----------
Tested on: Human immunodeficiency virus 1
Assay Name: Anti HIV-1 activity against the virus NL4-3 using fusion assay
Format: functional, organism-based
compounds and their reported EC50

{"columns": ["Substance Smiles", "EC50"],
 "data": [
  ["C=C(C)[C@@H]1CC[C@]2(C(=O)NCCCCCCCC(=O)OC)CC[C@]3(C)[C@H](CC[C@@H]4[C@@]5(C)CC[C@H](OC(C)=O)C(C)(C)[C@@H]5CC[C@]43C)[C@@H]12", "> 31 µM"],
  ["CC(=O)O[C@H]1CC[C@]2(C)[C@H]3CC[C@@H]4[C@H]5[C@H](C(C)C)CC[C@]5(C(=O)NCCCCCCCC(=O)N[C@@H](CC(C)C)[C@H](O)CC(=O)OCc5ccccc5)CC[C@@]4(C)[C@]3(C)CC[C@H]2C1(C)C", "> 22 µM"]
]}

Req: // query EC50 value for entry C=C(C)[C@@H]1CC[C@]2(C(=O)NCCCCCCCCCCC(=O)OC)CC[C@]3(C)[C@H](CC[C@@H]4[C@@]5(C)CC[C@H](OC(C)=O)C(C)(C)[C@@H]5CC[C@]43C)[C@@H]12
Resp: > 29 µM

Req: // query EC50 value for entry C=C(C)[C@@H]1CC[C@]2(C(=O)NCCC(=O)N[C@@H](CC(C)C)C(=O)OC)CC[C@]3(C)[C@H](CC[C@@H]4[C@@]5(C)CC[C@H](O)C(C)(C)[C@@H]5CC[C@]43C)[C@@H]12
Resp: 7.63 µM

----------
Test system: Human immunodeficiency virus 1
Assay Name: Anti HIV-1 activity against the virus NL4-3 using fusion assay
Assay type: functional, organism-based
Endpoint: EC50

Some solved entries appear below for comparison.
{"columns": ["Compound", "Target Or System", "EC50"],
 "data": [
  ["C=C(C)[C@@H]1CC[C@]2(C(=O)NCCC(=O)OC)CC[C@]3(C)[C@H](CC[C@@H]4[C@@]5(C)CC[C@H](OC(C)=O)C(C)(C)[C@@H]5CC[C@]43C)[C@@H]12", "Human immunodeficiency virus 1", "21.4 µM"],
  ["C=C(C)[C@@H]1CC[C@]2(C(=O)NCCCCCCCCCCC(=O)O)CC[C@]3(C)[C@H](CC[C@@H]4[C@@]5(C)CC[C@H](O)C(C)(C)[C@@H]5CC[C@]43C)[C@@H]12", "Human immunodeficiency virus 1", "0.31 µM"],
  ["Cc1cn([C@H]2C[C@H](N=[N+]=[N-])[C@@H](CO)O2)c(=O)[nH]c1=O [ZIDOVUDINE]", "Human immunodeficiency virus 1", "> 75 µM"]
]}

Now consider the entry below.
Req: // query EC50 value for entry C=C(C)[C@@H]1CC[C@]2(C(=O)NCCC(=O)O)CC[C@]3(C)[C@H](CC[C@@H]4[C@@]5(C)CC[C@H](O)C(C)(C)[C@@H]5CC[C@]43C)[C@@H]12
Resp: > 38 µM

----------
System: Human immunodeficiency virus 1
Assay Name: Anti HIV-1 activity against the virus NL4-3 using MAGI assay
Type: functional, organism-based
Condition Summary: Human immunodeficiency virus 1, MAGI
pEC50: −log10 of the molar value.
Endpoint: pEC50

{"columns": ["Substance Smiles", "Endpoint", "Endpoint Value"],
 "data": [
  ["CC(=O)O[C@H]1CC[C@]2(C)[C@H]3CC[C@@H]4[C@H]5[C@H](C(C)C)CC[C@]5(C(=O)NCCCCCCCC(=O)N[C@@H](CC(C)C)[C@H](O)CC(=O)OCc5ccccc5)CC[C@@]4(C)[C@]3(C)CC[C@H]2C1(C)C", "pEC50", "< 4.55"]
]}

Req: // query pEC50 value for entry C=C(C)[C@@H]1CC[C@]2(C(=O)NCCC(=O)N[C@@H](CC(C)C)C(=O)O)CC[C@]3(C)[C@H](CC[C@@H]4[C@@]5(C)CC[C@H](O)C(C)(C)[C@@H]5CC[C@]43C)[C@@H]12
Resp: < 4.41

Req: // query pEC50 value for entry C=C(C)[C@@H]1CC[C@]2(C(=O)NCCC(=O)O)CC[C@]3(C)[C@H](CC[C@@H]4[C@@]5(C)CC[C@H](O)C(C)(C)[C@@H]5CC[C@]43C)[C@@H]12
Resp: < 4.33

Req: // query pEC50 value for entry C=C(C)[C@@H]1CC[C@]2(C(=O)NCCC(=O)N[C@@H](CC(C)C)C(=O)OC)CC[C@]3(C)[C@H](CC[C@@H]4[C@@]5(C)CC[C@H](O)C(C)(C)[C@@H]5CC[C@]43C)[C@@H]12
Resp: < 4.42

Req: // query pEC50 value for entry C=C(C)[C@@H]1CC[C@]2(C(=O)NCCCCCCCC(=O)OC)CC[C@]3(C)[C@H](CC[C@@H]4[C@@]5(C)CC[C@H](OC(C)=O)C(C)(C)[C@@H]5CC[C@]43C)[C@@H]12
Resp: 4.54

----------
Test system: Human immunodeficiency virus 1
Assay Name: Anti HIV-1 activity against the virus NL4-3 using fusion assay
Assay type: functional, organism-based
molecules and their reported pEC50
The quantity pEC50 is defined as the negative base-10 logarithm of the molar concentration.

{"columns": ["Substance Smiles", "Endpoint Value"],
 "data": [
  ["C=C(C)[C@@H]1CC[C@]2(C(=O)NCCCCCCCCCCC(=O)N[C@@H](CC(C)C)C(=O)O)CC[C@]3(C)[C@H](CC[C@@H]4[C@@]5(C)CC[C@H](O)C(C)(C)[C@@H]5CC[C@]43C)[C@@H]12", 6.48],
  ["C=C(C)[C@@H]1CC[C@]2(C(=O)NCCCCCCCC(=O)N[C@@H](CC(C)C)C(=O)OC)CC[C@]3(C)[C@H](CC[C@@H]4[C@@]5(C)CC[C@H](O)C(C)(C)[C@@H]5CC[C@]43C)[C@@H]12", 6.07],
  ["C=C(C)[C@@H]1CC[C@]2(C(=O)NCCCCCCCC(=O)N[C@@H](CC(C)C)C(=O)O)CC[C@]3(C)[C@H](CC[C@@H]4[C@@]5(C)CC[C@H](O)C(C)(C)[C@@H]5CC[C@]43C)[C@@H]12", 5.96],
  ["CC(C)C[C@H](NC(=O)CCCCCCCNC(=O)[C@]12CC[C@@H](C(C)C)[C@@H]1[C@H]1CC[C@@H]3[C@@]4(C)CC[C@H](O)C(C)(C)[C@@H]4CC[C@@]3(C)[C@]1(C)CC2)[C@H](O)CC(=O)O", 6.40]
]}

Now consider the entry below.
Req: // query pEC50 value for entry C=C(C)[C@@H]1CC[C@]2(C(=O)N[C@@H](CC(C)C)C(=O)O)CC[C@]3(C)[C@H](CC[C@@H]4[C@@]5(C)CC[C@H](O)C(C)(C)[C@@H]5CC[C@]43C)[C@@H]12
Resp: 5.26
